Test system: Female Balb/c mice
Assay: Adjuvanticity of lipids: serum anti-KLH IgA, IgG, IgM ELISA (Example 7)
Format: in vivo
Settings: serum day 7 after booster; control KLH + Saline = 1
Please go through the items and note down their Day 7 Results IgG, score as multiples of the control response.
Write no unit; give the number alone.

*Q* Which Day 7 Results IgG, score as multiples of the control response value belongs to `CCCCCCCCCCCCCCCCC(=O)OC[C@H](COP(=O)(O)OCCN)OC(=O)CCCCCCCCCCCCCCCC` ?
*A* 12

*Q* Now the same for CCCCCCCCCCCCCCCCCC(=O)OCC(COC(=O)CCCCCCCCCCCCC)OC(=O)CCCCCCCCCCCCCCCCC (racemic)
*A* 4

*Q* Now consider CCCCCCCCCCCCCCCC(=O)OCC(COP(=O)(O)OC[C@H](N)C(=O)O)OC(=O)CCCCCCCCCCCCCCC (mixture of isomers) .
*A* 2

*Q* Entry to check: CCCCCCCCCCCCCCCC(=O)OCC(COP(=O)(O)OCCN)OC(=O)CCCCCCCCCCCCCCC (racemic)
*A* 8

*Q* Again, but for CCCCCCCCCCCCCCCCCC(=O)OCC(COP(=O)([O-])OCC[N+](C)(C)C)OC(=O)CCCCCCCCCCCCCCCCC (racemic)
*A* 8

*Q* Next record, please: CCCCCCCCCCCCCCCC(=O)OCC(COC(=O)CCCCCCCCCCCCC)OC(=O)CCCCCCCCCCCCCCC (racemic)
*A* 3

*Q* Can you check `CCCCCCCCCCCCCCCCC(=O)OC[C@H](COP(=O)(O)O)OC(=O)CCCCCCCCCCCCCCCC` next?
*A* 4
